- System: MS2 coat protein
- PROTOCOL_DETAILS: apparent KD of MS2 coat protein, switch ON state; designed switch direction (-1 OFF switch, 1 ON switch): -1; higher = weaker reporter binding
- CONDITION_INFO: FMN input: 0 or 200 uM; Eterna round: R93 (includes R88 designs)
Classify as follows. Reported apparent KD of MS2 coat protein greater than or equal to 40 nM: TRUE. Reported apparent KD of MS2 coat protein below: FALSE.

> print(dat)
                              sequence.data  class.label
1  AAGAAGGUAGGAUAUACUAAAGAAACUAAUGCAAAGAUAAAACAUGAGGAUCACCCAUGUAGAAGGGCCAGAAA [JR_Exc002_Sub016]        FALSE
2  GAAAAGUCAGGAUAUGCAGACAAAGCAAAAAAGCAAUGUCUGCAGAAGGGACAUGAGGAUCACCCAUGUAAAAA [Mat - Exclusion 4 - Mayanna - D115]         TRUE
3  CUUAGACAUGAGGAUCACCCAUGUGAGGAUAUGAUGCGAAUAAAGAAAGAAGAAAGCAUCAGAAGGCACAUAUG         TRUE
4  AAGUUAUUAGGAUAUACUAGUGCGAUUAAUACGCUGAUAGUACAUGAGGAUCACCCAUGUAGAAGGAAUAAAAA [JR_Exc002_Sub409]        FALSE
5  AGCUAGUCAGGAUAUACGAACAAGAAAAAAGACGAGAACGGACAUGAGGAUCACCCAUGUAGAAGGGACUAGCA [Diamond 9]        FALSE
6  AGGAAACAUGAGGAUCACCCAUGUGAGGAUAUUGAAAAGAAAAGAAAAGAAAGAAGAACAAGAAGGUACAAGAA [Nyuserre Ini]        FALSE

[Q] hey, is apparent KD of MS2 coat protein for this one >= 40 nM? AAUAAGACAGGAUAUACUAAAGAAAUGAAAAGAAAUAAAGAACAUGAGGAUCACCCAUGUAGAAGGGUCAAUAA ['Apepi]
[A] TRUE

[Q] Identify whether the reported apparent KD of MS2 coat protein of the following sequence is 40 nM or greater: AAGAAGGCAGGAUAUACAAAAUAAAAGAAAAGAAAGAAAGAACAUGAGGAUCACCCAUGUAGAAGGGCCAAGAA [Seankhibre Amenemhet VI]
[A] TRUE

====

- Test system: K4 kissing-loop RNA reporter;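 further: bound reporter read as fluorescence of individual clusters on recovered sequencing chips by microscopy, with normalized cluster intensities fitted with a binding model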
- PROTOCOL_DETAILS: apparent KD of K4 kissing-loop reporter; higher = weaker reporter binding
- CONDITION_INFO: Eterna round: R107; input ligand: FMN 200 uM
REPORTED_ENDPOINT: apparent KD of K4 kissing-loop reporter
Please report the result as a number followed by the unit.

Look over these answered cases.
SEQUENCE_DATA	apparent KD of K4 kissing-loop reporter
GCCGUAGAUUGAAGGAGCGUGGAACUAUGGCUUGAACAGUGAUGUUGUUUAUCUAGGUAGCCGCAGGUAGGUCGCAAUCUACGGC	263 nM
AAGUGAUGUUGUAGUGAUGUUGUGAUGUUGCAGGAUAUAUAGUGAUGUAGAAGGGUAUGUACUUAUUUUUUAUUUGAGUUAUGUU [mmvmmullin]	72.1 nM
AAGCAGUCACUCGACGCCAUCGAAGAUGGGCGAGGACCGGUACGGCCGCCACUCGGAGUGAUGUUCUGAAGACUGCAAAAUAAAA [MatMod 7 - Jieux - Exclusion - Tryptophan A]	235 nM
AGAUAGGGCUGAAGGAGCGUCGGAGAAGAGAAGAAGGAAUCCAGUGAUGUUGGAUAAAUCCGACAGGUAGGUCGCAGUUUUAUGA [hbob_SS_Arginine_B_2t138]	108 nM
GCGCGUCAUGUCAGCGGUGACUUUGUCGAUACCAGCGCCGCAAGGCGCCCUUGGCAGCGACGCGCUGGAGUGAUGUUCCAGCGUG [#2 Exclusion - Theophylline A Attempt #12 (HarryS)]	135 nM

[Q] Record request: apparent KD of K4 kissing-loop reporter value, item CUACAUGCACAGGAGUGAUGUUUAUGGGCUCGAGGACCGGUACGGCCGCCACUCGUUAUGGCACGCAGUAGAUAUAGGCGAGGAA [theeternabot_sameState_KL_Trp_A_41]
[A] 615 nM

====

The following sequences are shown together with reported apparent KD of MS2 coat protein values.
- System: MS2 coat protein
- PROTOCOL_DETAILS: apparent KD of MS2 coat protein; higher = weaker reporter binding
- CONDITION_INFO: Eterna round: R107; input ligand: arginine 13.2 mM
State the answer as a number, implicitly in µM.

SEQUENCE_DATA	apparent KD of MS2 coat protein (µM)
UGUAUGGACUGAAGGAGCGCCUCAAACAUGAGGAUCACCCAUGUGGACAAAUAAGUCCUUGGGCAGGUAGGUCGCAGUCCAUACU [ArgBX 7 #StaticStem #MS2Late]	0.0735
GGGUACAUCGCGGCCGCCACUGAUGUAAAUACAUGAGGAUCACCCAUGUCGAUGGAGACAUCGGCCAGGACCGGGUGAUGUACCG	0.0131
GGGCGCGUGGACCGGCGUGCUCCGCUCCGUCGAGGACCGGUACGGCCGCCACUCGACAUGAGGAUCACCCAUGUGUGAGCUCGCG [#1 Exclusion - Tryptophan A Attempt #16 (HarryS)]	0.0225
AAUAUUUGCCACAUGAGGAUCACCCAUGUGCGAGGACCGGUACGGCCGCCACUCGGUCGGUGGUUAAUGAAGAUAAACAAUAAUG [XTryp A #11]	0.0077
GGAGCUACGUCGGCCGCCACUAGCGGUUAUUACGUGUACAUGAGGAUCACCCAUGUAAUAUGGCUUAGGACCGGGACGUAGCUCC [Wolverine]	0.021

[Q] Bench note: what apparent KD of MS2 coat protein did ACGCGCUGGGCGGCCGCCACUCACCUGCCGUGGACAUUUCGAGGUCACAUGAGGAUCACCCAUGUGAGGACCGGGCCCUGUAGGC [theeternabot_exclusion_MS2_Trp_B_37] show?
[A] 0.0123

[Q] May I ask what apparent KD of MS2 coat protein has been recorded for UCGCUCUGGGUGGAAUCCGGAGAUGUGGAAGGAGCGCUCGAAAGGGCAGGUAGGUCGCCAACGGACAUGAGGAUCACCCAUGUAC [#23 Same State - Arginine A] ?
[A] 0.0294

====

Listed sequences paired with reported apparent KD of MS2 coat protein
- Test system: MS2 coat protein
- PROTOCOL_DETAILS: apparent KD of MS2 coat protein; designed switch direction (-1 OFF switch, 1 ON switch): -1; higher = weaker reporter binding
- CONDITION_INFO: input ligand: microRNA oligo, concentration not stated
Give your result in nM as a bare value.

SEQUENCE_DATA	apparent KD of MS2 coat protein, nM
AGCUGUGGCCGAGGAUAUCUAACUUCAAAUACCGACGUAUAGUCGGACAUGAGGAUCACCCAUGUAGAGAAGGCGGUCUCAGCA [Eli eng2 - 037] (Eterna round: R96, puzzle: Exclusion NG 2)	12.3
GCAGCAUAGUUUACUAACUGUUACAUGAGGAUCACCCAUGUCUAGGAUAUGGUCUGGAUUACAGGCCAGAAGGAGAAAAGCUGC [Eli exng3 - 036] (Eterna round: R96, puzzle: Exclusion NG 3)	13
AGUACCUGAGUACAAAGUAACAUGAGGAUCACCCAUGUAAAUGGGUGAGAACAAGCUCACCGUUCGUCUUAAAUAAA [JL turnoff v1 79] (Eterna round: R96, puzzle: Sensor v2, turn-off variant)	38.8

[Q] Quick check: apparent KD of MS2 coat protein of UACCUGAGGCUUUGCUUUAGGCUUACAUGAGGAUCACCCAUGUAGGAUAUGGUAGGCUUUGCUUACCAGAAGGACAUGGUAAUU [JL ENG3 1.07] (Eterna round: R96, puzzle: Exclusion NG 3) ?
[A] 59.9

[Q] Could you tell me which apparent KD of MS2 coat protein is on file for AAGAAGAAGUAAGGAUAUGAAGAUUUGGUGGUGACAUGAGGAUCACCCAUGUGAAAACAAUAAGAUCAGAAGGUAUAAGAAGAA [AK ExNG2-3] (Eterna round: R96, puzzle: Exclusion NG 2) ?
[A] 434

====

- Tested on: MS2 coat protein
- PROTOCOL_DETAILS: apparent KD of MS2 coat protein; designed switch direction (-1 OFF switch, 1 ON switch): 1; higher = weaker reporter binding
- CONDITION_INFO: Eterna round: R95; input ligand: none
REPORTED_ENDPOINT: apparent KD of MS2 coat protein (nM)
Report as a plain number; the unit nM is understood.

[Q] What does the record list as apparent KD of MS2 coat protein for CGUCCGGCCUGUGCUGGCCGGAAGCAUGUACAUGAGGAUCACCCAUGUUCUUGUGCAGGCUUUUUGCUCGUCUUGUG [salish99_mir208a_010] (puzzle: Sensor for hsa-mir-208a) ?
[A] 22.2

[Q] Name the reported apparent KD of MS2 coat protein value associated with the sequence ACCCAAAGUAUAUGGGAACGAGCUUUUUAACAUGAGGAUCACCCAUGUACUCGUCUUAUAAGCAGUCGAAAGACUGC [Sensor 100 - 3] (puzzle: Sensor for hsa-mir-208a)
[A] 390

[Q] Report apparent KD of MS2 coat protein for AUCAAUCUAUCUGAGGAUAUCAUGAAAUAAACAUGAGGAUCACCCAUGUGCAGGAAAACUGCAUAUGAGAAGGCAGAUAGAUUGA [salish99_ss2_r3_019] (puzzle: Same State 2) please.
[A] 879

[Q] For AGUCCAGCCUGAGCUGGACAAAAGCAUGUACAUGAGGAUCACCCAUGUUCAUGUACUAGCUUUUUGCUCGUCUUGCC [salish99_208a_r3_108x] (puzzle: Sensor for hsa-mir-208a) , what is its reported apparent KD of MS2 coat protein?
[A] 163

[Q] Given the sequence CGUAGGUAGCUGGAGGAUAUUCGAGUGGUAACAUGAGGAUCACCCAUGUGGAUAGAGGAACAUGAGGAGAAGGCUAGCUGCCUGC [JL-ss2-3.20 JL mod] (puzzle: Same State 2) , what is its reported apparent KD of MS2 coat protein?
[A] 30.6

Measured values drawn from the supplement of paper PMC9170038 for this set.
